Quick reference for apparent KD of MS2 coat protein among some sequences
tested on: MS2 coat protein; assay: apparent KD of MS2 coat protein, switch ON state; designed switch direction (-1 OFF switch, 1 ON switch): -1; higher = weaker reporter binding; settings: FMN input: 0 or 200 uM; Eterna round: R93 (includes R88 designs)
Just the number please, in nM, no unit attached.

Reference set (2 entries):
>>> observed_result("GAAAGUGGAGGAUAUACAUGAGGAUCACCCAUGUGUAAAAAUAAAUACACAAAAGAAAGUAGAAGGCCACAAAG [Mat - Exclusion 3 - Mayanna mod - D118]")
30.6
>>> observed_result("AAAAAGGGAGGAUAUACAUGAGGAUCACCCAUGUAACAGACGAAAAAGAGUCUGAAAAGUAGAAGGCCCAAAAA [65%, Moding Exclusion3-cac2, 7]")
24.7

We now examine a further sequence.
Please report the recorded apparent KD of MS2 coat protein for AAAAAGUCAGGAUAUGCGAAGGCGUCUGAUAGACGAGGCUAGCAGAAGGGACAUGAGGAUCACCCAUGUAAAAA [Mat - Exclusion 4 - Rerun - D81] . 50.5

----------
Quick reference for apparent KD of K4 kissing-loop reporter among some sequences
tested on: K4 kissing-loop RNA reporter; experiment: apparent KD of K4 kissing-loop reporter; higher = weaker reporter binding; details: Eterna round: R107; input ligand: arginine 13.2 mM;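 also: bound reporter read as fluorescence of individual clusters on recovered sequencing chips by microscopy, with normalized cluster intensities fitted with a binding model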
Just the number please, in nM, no unit attached.

Reference set (5 entries):
>>> observed_result("UGGAUAUAGUGAUGUUAUAUAGAGAGUGAUACCAGUUUAGAGAAGAACCCUUGGCAGCAUAAAGAAGUAUCAUUAGAGAAGAAUG [ExTheophyl.Ao]")
216
>>> observed_result("AAGAGAGCGAGAAGGAGCGAGAAAGCUAGUGCAUAUGCACUAGCAAAGCAGUGAUGUUGCACUCAGGUAGGUCGCUCGCUCUCAA [AK1.2 SS Arginine B]")
292
>>> observed_result("AAGGUUUAGCACGAUACCAGCCUGGAGGCCAGUGAUGUUGGCCGAUUUGAACAGAAUUAAGGCCCUUGGCAGCGUCUCUAAAACC [Dierra]")
180
>>> observed_result("UACAUAUUAUUUAACAUAAAUUUUACAGAAGGAGCGUGAUCAUUCACAGGUAGGUCGCUGAACUAGUGAUGUUAGUUUUAUUUUU [JR_Nu_ExcArginiA_Sub025]")
96.1
>>> observed_result("UGUAUGUGAUUUGAUACCAGACCAGCUGGUGGAAACUGAGUGAUGUUCAGUUAGGUUUGGGUCCCUUGGCAGCAAAUCGCAUACU [KL-SSTheoB28]")
119

We now examine a further sequence.
Observed apparent KD of K4 kissing-loop reporter on K4 kissing-loop RNA reporter for AAUAUGAAGCAGUGAUGUUGCUUAUGAGAAGGAGCGCACGAAAGUGCAGGUAGGUCGCUCAGCCAAGUGGACGAAAACGUCCACA [whbob_SS_Arginine_A_sa107] , please. 99.9

----------
Quick reference for apparent KD of MS2 coat protein among some sequences
test system: MS2 coat protein; test: apparent KD of MS2 coat protein; designed switch direction (-1 OFF switch, 1 ON switch): 1; higher = weaker reporter binding; settings: input ligand: none
Just the number please, in nM, no unit attached.

Reference set (5 entries):
>>> observed_result("AUGAAUUUGCGAGGAUAUCGUUUGUUGAAGUUACGAGAAGGCGCUCACUUUACAUGAGGAUCACCCAUGUUUAUGUUUUAUGAU [JR_SSNG1_Sub075] (Eterna round: R96, puzzle: Same State NG 1)")
31.1
>>> observed_result("GCUAGAAUUAAAGCCAACAUGAGGAUCACCCAUGUAUGUUGGCAGGAUAUCGUUUGCAAAGCAAACGAGAAGGGCCAAACUAGC [Mat - Same State NG 3 - JL Mod - D2] (Eterna round: R96, puzzle: Same State NG 3)")
125
>>> observed_result("GUUACAUGAGGAUCACCCAUGUAUGUGUGGGAGUAAGUGUCUUAGGAUAUCUGUUAUUUAAGUUAAGAGAAGGAAGAUUGUUGU [JMF's solution 42] (Eterna round: R96, puzzle: Same State NG 3)")
82.4
>>> observed_result("GCUCGACUGAUGGCCUACAUGAGGAUCACCCAUGUGAUUGGGCAGGAUAUCUAGAUGCAGGAUGUAGAGAAGGGCCUGUCGAGC [SameState NG3 #44] (Eterna round: R96, puzzle: Same State NG 3)")
349
>>> observed_result("CCCGCGUUUCGCGCCUACAUGAGGAUCACCCAUGUUUGUAGGCAGGAUAUCGUCCGCUCUGCGGGCGAGAAGGGCUGUCGUGGU [salish99_SSNG3_R04_030] (Eterna round: R96, puzzle: Same State NG 3)")
70.1

We now examine a further sequence.
Observed apparent KD of MS2 coat protein on MS2 coat protein for AGAUCAUGACGAGGAUAUGGUACAUGAGGAUCACCCAUGUAUGUACCACGACGCGUACGUCGAAUCCAGAAGGCGUCAUGAUCA [Mat - Same State NG 2 - JL mod - D18] (Eterna round: R96, puzzle: Same State NG 2) , please. 150

----------
test system: MS2 coat protein; experiment: apparent KD of MS2 coat protein; designed switch direction (-1 OFF switch, 1 ON switch): -1; higher = weaker reporter binding; settings: input ligand: FMN 200 uM
Each record's class is read off its apparent KD of MS2 coat protein using these ranges: bottom range = under 20 nM, center range = from 20 nM up to 200 nM, top range = 200 nM and over

Given AUAAUGUCAGGAUAUCAGUCGACUAGCCUCGGCUAGUCGACUGAGAAGGGACAUGAGGAUCACCCAUGUGUUUC [E4/14-A2] (Eterna round: R97, puzzle: Exclusion 4) , name the class its apparent KD of MS2 coat protein places it in. top range

Given AAUUAGCAAGCAAGAUCCCACAUGAGGAUCACCCAUGUGCUCGUCUUAUAAGGUACUGUGACGAGAGUCACGGUACC [Mat - Sensor, turn-off var - Eli Mod - D48] (Eterna round: R97, puzzle: Sensor, turn-off variant 1) , name the class its apparent KD of MS2 coat protein places it in. center range

Given AAAACCAGAGGAUAUGCGCAUAGAUCAGACUUUGUUUCUGAACAUGAGGAUCACCCAUGUAGAAGGCUGUAAAA [Ex2 #82] (Eterna round: R97, puzzle: Exclusion 2) , name the class its apparent KD of MS2 coat protein places it in. center range

----------
tested on: MS2 coat protein; test: apparent KD of MS2 coat protein; designed switch direction (-1 OFF switch, 1 ON switch): -1; higher = weaker reporter binding; conditions: input ligand: FMN 200 uM
Threshold check on apparent KD of MS2 coat protein: at or above 40 nM gives true, strictly below gives false.

Recorded results for 8 sequences are shown here.
>>> qualitative_label("ACAUGACUGCUAGGAUAUAGAUGACAUGAGGAUCACCCAUGUUAUCCCAUGUUGAUGGAAACCGACUAGAAGGAGCAGCAUAUG [Ex NG2 #10] (Eterna round: R96, puzzle: Exclusion NG 2)")
"true"
>>> qualitative_label("CUAAAUCAUGUAGGAUAUGCGUGGCAAAGCUAUGCAGAAGGACAUGAGGAUCACCCAUGUGCUUCCGUCUGAGUACAGACGGUA [Mat - Exclusion NG 1 - Mod of JL - D22] (Eterna round: R96, puzzle: Exclusion NG 1)")
"true"
>>> qualitative_label("GGAAAAAAAGUGAGGAUAUCCGGAGGGAAACCUCCGGAGAAGGCACAUGAGGAUCACCCAUGUAAAAAAAAAAA [AK-MS2ROC-r4-Bmoexclusion4-1] (Eterna round: R97, puzzle: Brourd's mod of Exclusion 4)")
"true"
>>> qualitative_label("CUAGUAUAUCAGGAUAUGAUUUUAUAUAGUUGGUCAGAAGGGAUGACAUGAGGAUCACCCAUGUUAAGGAGUGA [JR_Ex6_Sub043] (Eterna round: R97, puzzle: Exclusion 6)")
"true"
>>> qualitative_label("AUCAUGAUAGGAUAUACAUGAGGAUCACCCAUGUCCCACCCGUUACUUCUGGCCCUUUGUAGAAGGAUCGUCAA [Exy#21] (Eterna round: R97, puzzle: Exclusion 3)")
"false"
>>> qualitative_label("GAUUGCUCGUCUUGAAAACACAUGAGGAUCACCCAUGUAACUAGGGAAACCACGAUUAUAUUCGCUUUUCAGUGUAA [Eternabot (L2) Solution 2] (Eterna round: R97, puzzle: Sensor, turn-off variant 1)")
"false"
>>> qualitative_label("CAUUUCUGUCGUUGAUCCAACAUGAGGAUCACCCAUGUCUCUUUAGCUUUUUGCUCGUCUUAUCCUCCUUUGUUCAC [JR_STOV1_Sub099] (Eterna round: R97, puzzle: Sensor, turn-off variant 1)")
"true"
>>> qualitative_label("ACAAGCAUUUAUCUUUUCAAAUAUUAUCGUCUUAUAAUUACAUGAGGAUCACCCAUGUAUAGAGGGUGAGAGAUACU [JR_Sensorv2_tov2_Sub552] (Eterna round: R96, puzzle: Sensor v2, turn-off variant 2)")
"true"

Would you say UACUUCUGAGGAUAUACAUGAGGAUCACCCAUGUUGAUACCGACCUAAAGUCCAUUACGUAGAAGGCAGCAGUG [Eternabot (L1) Solution 91] (Eterna round: R97, puzzle: Exclusion 3) shows apparent KD of MS2 coat protein at minimum 40 nM? false

Would you say CGAUGCUCGAGUCGACAUGAGGAUCACCCAUGUAGAGUUAGUGAGGAUAUCGGAGACACAUAGUAUGAGAAGGCGCGAACCUGA [Ex NG3 #17] (Eterna round: R96, puzzle: Exclusion NG 3) shows apparent KD of MS2 coat protein at minimum 40 nM? false

Would you say UACAUGAGGAUCACCCAUGUUUUGUCGUGUAUGGUAUUUAUCUAGGAUAUCAAUGUAUUUAGUUAUGAGAAGGAGAAUAUUAAU [JMF's solution 46] (Eterna round: R96, puzzle: Exclusion NG 3) shows apparent KD of MS2 coat protein at minimum 40 nM? false

Would you say GGCCGUAAUAAGGAUAUCACUAGCUUCGGCUAGUGAGAAGGUAUUACAUGAGGAUCACCCAUGUGAUUAGGCCA [E6/5-B1] (Eterna round: R97, puzzle: Exclusion 6) shows apparent KD of MS2 coat protein at minimum 40 nM? true

Would you say GGCCUGUGAGGAUAUUAGUAGUAGAUGAAAUAAACUAUUACUGAGAAGGCACAUGAGGAUCACCCAUGUUGGCC [Mat - Exclusion 4 - Eli Mod - D36] (Eterna round: R97, puzzle: Exclusion 4) shows apparent KD of MS2 coat protein at minimum 40 nM? false
